- Test Summary: qHTS RealTime-Glo MT Cell Viability Assay in HEK293 cells - 16 hour (AID 1224872); also: nearly all actives have a fitted effect of over 50% in size; also: potency is read from the fitted curve at half-maximal effect
- Assay Context: RealTime-Glo luminescence; series mostly up to 76.8 µM
- Excerpt: National Center for Advancing Translational Sciences [NCATS] NIH Chemical Genomics Center [NCGC] U.S. Environmental Protection Agency [EPA] National Institutes of Environmental Health Sciences [NIEHS] National Toxicology Program [NTP] U.S. Food and Drug Administration [FDA] Measure of cell viability is critical in the cell-base assay. Analysis of cell viability is necessary for the characterization of cell responses to cytotoxic drugs and environmental stress. […]
Records with an inconclusive call do not appear. Activity calls are given as the source filed them. Calls follow the shape of the dose curve; as a rule, active = well fitted cell-killing curve with a large enough effect in the repeat runs; inconclusive = weak or mixed curves, or effect the other way; inactive = flat fitted curve, though single readings scatter.
Parameter: Potency

- Compound: "CCCCCCCCCCCC(=O)Cl"
  Parameter: "Potency"
  Measured: "inactive"
- Compound: "COC(=O)c1ccc([N+](=O)[O-])cc1"
  Parameter: "Potency"
  Measured: "inactive"
- Compound: "CCOC(=O)[C@H](C)O"
  Parameter: "Potency"
  Measured: "inactive"
- Compound: "Cn1ccnc1"
  Parameter: "Potency"
  Measured: "inactive"
- Compound: "CCNc1nc(NC(C)(C)C)nc(OC)n1"
  Parameter: "Potency"
  Measured: "inactive"
- Compound: "Oc1ccc(C2(c3ccc(O)c(C4CCCCC4)c3)CCCCC2)cc1C1CCCCC1"
  Parameter: "Potency"
  Measured: "43.6 µM (active)"
- Compound: "c1ccc2c(c1)-c1ccc3ccc4cccc5cc-2c1c3c45"
  Parameter: "Potency"
  Measured: "inactive"
- Compound: "CC(=O)[C@]1(O)Cc2c(O)c3c(c(O)c2[C@@H](O[C@H]2C[C@H](N)[C@H](O)[C@H](C)O2)C1)C(=O)c1ccccc1C3=O"
  Parameter: "Potency"
  Measured: "0.535 µM (active)"
- Compound: "C/C(=N\\[Si](C)(C)C)O[Si](C)(C)C"
  Parameter: "Potency"
  Measured: "inactive"
- Compound: "CC1CCC(C(C)(C)O)CC1 (configuration not stated)"
  Parameter: "Potency"
  Measured: "inactive"
- Compound: "Cc1c[nH]c(=O)[nH]c1=O"
  Parameter: "Potency"
  Measured: "inactive"
- Compound: "CCCC(C)C=O (configuration not stated)"
  Parameter: "Potency"
  Measured: "inactive"

// data source = PubChem BioAssay (Tox21)
